Origin of values: PubChem BioAssay (NCI)

tested on: EKVX NSCLC; assay: NCI tumour cell line growth inhibition, 48 h
experimental readout: TGI

A selection of reference data follows.
{"columns": ["compound", "experimental system", "reported result"],
 "data": [
  ["Cc1cc(C)nc(NS(=O)(=O)c2ccc(NC(=O)c3cccc4cc5ccccc5nc34)cc2)n1", "EKVX NSCLC", "> 100 µM"],
  ["O=c1[nH]c(=S)[nH]c(O)c1/C=C1\\C=CC=N1", "EKVX NSCLC", "56.7 µM"],
  ["C[C@@H]1C(O)CC[C@H](C)C12CC=CC2=O (some centres undefined)", "EKVX NSCLC", "> 100 µM"],
  ["Cn1c(O)c(C(=O)Nc2ccc([N+](=O)[O-])cc2)c(=O)n(C)c1=S", "EKVX NSCLC", "> 23.2 µM"],
  ["C[Se]C(=O)CC1=C2C=C(F)C=CC2/C(=C\\c2ccc(S(C)=O)cc2)C1C (centres undefined)", "EKVX NSCLC", "0.0967 µM"],
  ["O=C(/C=C/c1ccc(O)c(O)c1)OCCOC(=O)/C=C/c1ccc(O)c(O)c1", "EKVX NSCLC", "83.1 µM"]
]}

I'd like to know its TGI. The compound in question is COc1ccc2c(c1)c1cc(OC)ccc1n2CCCCOc1ccc(-c2c3ccccc3c(-c3ccc(OCCCCn4c5ccc(OC)cc5c5cc(OC)ccc54)cc3)c3ccccc23)cc1
> 100 µM

I would be grateful if you could share the reported TGI for CC[C@H](C)[C@H](NC(=O)C12C3C4C1C1C2C3C41NC(C)=O)C(=O)N(C)[C@H](C[C@@H](OC(C)=O)c1nc(C(=O)N[C@@H](Cc2ccccc2)C[C@H](C)C(=O)OC)cs1)C(C)C (some centres undefined) .
> 14.3 µM

Returns the measured TGI for the input compound. Input: O=[N+]([O-])c1ccc(Cl)c(C2SCc3nc4ccccc4n32)c1 (centres undefined)
> 100 µM

* * *

system: NCI-H226 lung; experiment: NCI tumour cell line growth inhibition, 48 h
Let's look at some compounds and their measured TGI.

Some solved cases for reference:
{"columns": ["compound", "TGI"],
 "data": [
  ["O=C(NC(Nc1ccc(F)c(Cl)c1)(C(F)(F)F)C(F)(F)F)C(C(F)(F)F)C(F)(F)F", "64.7 µM"],
  ["COC/C=C\\[C@@]1(O)CCCC[C@@H]1CC(OC)OC", "> 100 µM"],
  ["COc1ccc(NC(=O)c2cc(OC)c(OC)c(OC)c2)cc1O", "> 100 µM"],
  ["O=Cc1coc2ccccc2c1=O", "84.4 µM"],
  ["O=C1OC(CN2CCN(c3ccccc3)CC2)CN1C(=S)Nc1ccccc1 (stereo unspecified)", "> 100 µM"]
]}

Turning now to a further record.
I'm curious: which TGI was measured for Cn1cnc([N+](=O)[O-])c1Sc1ncnc2c1ncn2C1OC(CO)C(O)C1O (stereo unspecified) tested on NCI-H226 lung?
> 100 µM

* * *

system: HCT-15 colon; test: NCI tumour cell line growth inhibition, 48 h
# TGI per entry
Please give a number only; it is taken to be in µM.

Guide cases for TGI, answers given:
{"columns": ["compound", "experimental readout", "output unit", "reported result"],
 "data": [
  ["CC(=O)N1CC(F)(F)c2c(Sc3ncc(N4CCC5(CC4)COC[C@H]5N)nc3N)cccc21", "TGI", "µM", 96.8],
  ["O=C(C1OC1c1ccc([N+](=O)[O-])cc1)C12CC3CC(CC(C3)C1)C2 (stereo not given)", "TGI", "µM", 31.5],
  ["Fc1ccc(C(OCCN2CCC3CCC(C2)N3Cc2cc3ccccc3[nH]2)c2ccc(F)cc2)cc1 (stereo not given)", "TGI", "µM", 2.38],
  ["O=c1c([Se]c2coc3ccccc3c2=O)coc2ccccc12", "TGI", "µM", 30.8]
]}

Given the entry O=c1[nH]c(=S)[nH]c(O)c1/C=C1\C=CC=N1 , report its measured TGI.
14.8
